- TESTED TARGET: T1, full-length human GIPR with an N-terminal FLAG tag (human, UniProt P48546 22-466)
- T1 sequence (looked up): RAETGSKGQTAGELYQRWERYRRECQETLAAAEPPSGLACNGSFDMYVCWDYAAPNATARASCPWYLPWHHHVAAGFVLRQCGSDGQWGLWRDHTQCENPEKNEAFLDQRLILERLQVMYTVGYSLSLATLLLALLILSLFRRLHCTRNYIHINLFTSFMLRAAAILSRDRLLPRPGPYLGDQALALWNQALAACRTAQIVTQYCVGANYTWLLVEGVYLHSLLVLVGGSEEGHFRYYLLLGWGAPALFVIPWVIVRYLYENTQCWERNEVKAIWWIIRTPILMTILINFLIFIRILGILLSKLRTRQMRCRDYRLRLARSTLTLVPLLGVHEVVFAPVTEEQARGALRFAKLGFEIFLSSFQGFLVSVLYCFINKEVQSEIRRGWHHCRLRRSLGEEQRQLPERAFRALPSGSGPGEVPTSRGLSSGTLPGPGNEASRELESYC
- ASSAY METHOD TEXT: cell-based or functional assay
Non-standard residues stand in square brackets, D forms with d. Groups on a side chain read outwards from the residue. No end group written: not given here. *: point of attachment. 2OEGgEgE‑C18 diacid = O=C(O)CCCCCCCCCCCCCCCCC(=O)N[C@@H](CCC(=O)N[C@@H](CCC(=O)NCCOCCOCC(=O)NCCOCCOCC(=O)*)C(=O)O)C(=O)O; C18 diacid = O=C(O)CCCCCCCCCCCCCCCCC(=O)*; NMeY = CN[C@@H](Cc1ccc(O)cc1)C(=O)O; Aib = CC(C)(N)C(=O)O
Quick rule for you: Human GIPR cAMP EC50, HEK293T under 0.5 pM gets True, anything else gets False.

Below, 3 binders whose answers are already recorded.
>  <BINDER>
YXEGTFISDYSIALDRXAQXDFVEWLLAQRG (N-methyl Tyr 1; Aib at 2,20; Lys(G5-C18 diacid) at 17; C-terminal OH) [Compound No. 115]

>  <CATEGORY LABEL>
True

$$$$
>  <BINDER>
YXEGTFISDYSIXXDSXAQADFVNWLLAQRG (N-terminus H; Aib at 2,13,17; Lys(G5-C18 diacid) at 14; C-terminal OH) [Compound No. 152]

>  <CATEGORY LABEL>
False

$$$$
>  <BINDER>
[NMeY][Aib]EGTFISDYSI[Aib]LDR[Aib]K([2OEGgEgE-C18 diacid])Q[Aib]DFVNWLLAQSPG-OH [Compound No. 87]

>  <CATEGORY LABEL>
True

$$$$

### Prompt Quick check: Human GIPR cAMP EC50, HEK293T of [NMeY][Aib]EGTFISDYSIALDR[Aib]AQ[Aib]K(2OEGgEgE‑C18 diacid)FVNWLLAQSG-OH [Compound No. 42] under 0.5 pM?
### Response False
